# experimental-target: MMP-13 (Homo sapiens, UniProt P45452)
# Construct: purchased Reaction Biology Corporation, Malvern, PA, USA (contract assay service)
# protocol-details: MMP-13 in vitro inhibition assay (FRET peptide substrate)
# Assay type: biochemical
# measurement-setup: 1.4(−logIC50)/N; N = number of non-hydrogen atoms
readout-label: LE (Ligand Efficiency)

1) CS(=O)(=O)NC(=O)CCCCOc1cccc(CC(=O)Nc2ccc3c(c2)C(=O)N(Cc2ccccc2)C3=O)c1 ... 0.21
2) O=C(Cc1cccc(OCCCO)c1)Nc1ccc2c(c1)C(=O)N(Cc1ccccc1)C2=O ... 0.26
3) CNC(=O)CCCCOc1cccc(CC(=O)Nc2ccc3c(c2)C(=O)N(Cc2ccccc2)C3=O)c1 ... 0.25
4) O=C(Cc1cccc(OCCCCCO)c1)Nc1ccc2c(c1)C(=O)N(Cc1ccccc1)C2=O ... 0.24

###

pIC50: −log10 of the molar value.
Entries with their measured pIC50, system MMP-13 (Homo sapiens):
readout-label: pIC50

1) CS(=O)(=O)NC(=O)CCCOc1cccc(CC(=O)Nc2ccc3c(c2)C(=O)N(Cc2ccccc2)C3=O)c1 ... 6.05
2) O=C(Cc1cccc(OCCCCCO)c1)Nc1ccc2c(c1)C(=O)N(Cc1ccccc1)C2=O ... 6.09
3) CS(=O)(=O)NC(=O)CCCCOc1cccc(CC(=O)Nc2ccc3c(c2)C(=O)N(Cc2ccccc2)C3=O)c1 ... 6.12
4) O=C(O)CCCOc1cccc(CC(=O)Nc2ccc3c(c2)C(=O)N(Cc2ccccc2)C3=O)c1 ... 6.11
5) O=C(Cc1cccc(OCCCO)c1)Nc1ccc2c(c1)C(=O)N(Cc1ccccc1)C2=O ... 6.23

###

# experimental-target: MMP-13 (Homo sapiens, UniProt P45452)
# Construct: purchased Reaction Biology Corporation, Malvern, PA, USA (contract assay service)
# protocol-details: MMP-13 in vitro inhibition assay (FRET peptide substrate)
# Format: biochemical
# measurement-setup: at 10 μM inhibitor concentration; triplicate; read-out: % Activity (remaining enzyme activity)
readout-label: remaining activity at 10 µM (%)

1) O=C(O)CCCCOc1cccc(CC(=O)Nc2ccc3c(c2)C(=O)N(Cc2ccccc2)C3=O)c1 [Compound 3] ... 2.4

[A] O=C(O)CCOc1cccc(CC(=O)Nc2ccc3c(c2)C(=O)N(Cc2ccccc2)C3=O)c1 [Compound 14]
[B] CS(=O)(=O)NC(=O)CCOc1cccc(CC(=O)Nc2ccc3c(c2)C(=O)N(Cc2ccccc2)C3=O)c1 [Compound 17]
[C] O=C(O)CCCCCOc1cccc(CC(=O)Nc2ccc3c(c2)C(=O)N(Cc2ccccc2)C3=O)c1 [Compound 16]
[D] CNC(=O)CCCCOc1cccc(CC(=O)Nc2ccc3c(c2)C(=O)N(Cc2ccccc2)C3=O)c1 [Compound 5]
rank_up(items): orders items by reported remaining activity at 10 µM in ascending numerical order. Output spec: labels arranged per the requested ranking.
C, D, A, B
